B1: TPR t1 (parent)
chain: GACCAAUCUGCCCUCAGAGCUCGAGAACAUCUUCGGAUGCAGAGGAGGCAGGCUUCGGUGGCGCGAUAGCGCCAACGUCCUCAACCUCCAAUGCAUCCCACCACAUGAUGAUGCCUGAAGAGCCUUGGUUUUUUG

Variants of: B1
Assay: polymerase ribozyme fitness, log enrichment relative to wild type (log ratio); higher = more active; in vitro selection for triplet polymerase activity
Here the recorded polymerase ribozyme fitness (log ratio) is given for each entry.

variant: C13A C28G C34A G69A A84C G110C
polymerase ribozyme fitness (log ratio): -4.89

variant: C13A G39C C76G U106C
polymerase ribozyme fitness (log ratio): -2.79

variant: A46U U106G
polymerase ribozyme fitness (log ratio): -2.72

variant: A18C C88G G120A
polymerase ribozyme fitness (log ratio): -2.81

variant: C11A G113A
polymerase ribozyme fitness (log ratio): -3.12

variant: A16U G17A C20A C49A C73U
polymerase ribozyme fitness (log ratio): -4.77

variant: C11A C12U U38A U78C U96A
polymerase ribozyme fitness (log ratio): -2.53

variant: C20U G63U
polymerase ribozyme fitness (log ratio): -2.43

variant: U7C G69A
polymerase ribozyme fitness (log ratio): -2.74

variant: G52U G120C
polymerase ribozyme fitness (log ratio): -0.122

variant: C12A C20G A83G C85U A95G
polymerase ribozyme fitness (log ratio): -5.21

variant: G47U G135A
polymerase ribozyme fitness (log ratio): -2.09

variant: G69A A121U U126G
polymerase ribozyme fitness (log ratio): -2.09

variant: G48A C72U U81C C102A A121C
polymerase ribozyme fitness (log ratio): -0.882

variant: U14G A50G A84G
polymerase ribozyme fitness (log ratio): -3.03

variant: A46U C72G C114G
polymerase ribozyme fitness (log ratio): -3.52

variant: C11G G120U
polymerase ribozyme fitness (log ratio): 1.37

variant: A29G A50G C99G A105G C124A
polymerase ribozyme fitness (log ratio): -7.1

variant: C8A G48C C49U C62A C94A
polymerase ribozyme fitness (log ratio): -3.22

variant: C4G G71A
polymerase ribozyme fitness (log ratio): -1.72

variant: C53A G60A
polymerase ribozyme fitness (log ratio): -0.364

variant: A16G G42U C49A C56U G61A U96G U109G U134A
polymerase ribozyme fitness (log ratio): -5.05

variant: G61C C70U C114U G127U
polymerase ribozyme fitness (log ratio): -4.4

variant: C62G U131A
polymerase ribozyme fitness (log ratio): -1.42

variant: C94U A100G G120U
polymerase ribozyme fitness (log ratio): -3.95

variant: C12A C88U G110C
polymerase ribozyme fitness (log ratio): -4.61

variant: C28U A50U C62U A68G U106A G110A C114A
polymerase ribozyme fitness (log ratio): -6.37

variant: U38A G45C C89U
polymerase ribozyme fitness (log ratio): -2.34

variant: G10U C89A C114A
polymerase ribozyme fitness (log ratio): -2.81

variant: A46G C49A U112C
polymerase ribozyme fitness (log ratio): 1.28

variant: A43U C70G
polymerase ribozyme fitness (log ratio): -4.41

variant: A6G U14G G58A
polymerase ribozyme fitness (log ratio): -0.642

variant: U87A U106A
polymerase ribozyme fitness (log ratio): 0.566

variant: G44U A111U
polymerase ribozyme fitness (log ratio): -4.9

variant: G42U A43C G69C A74U U87G C89G
polymerase ribozyme fitness (log ratio): -5.66

variant: G61A G113C
polymerase ribozyme fitness (log ratio): -1.78

variant: C34U A84G C89G
polymerase ribozyme fitness (log ratio): -6.47

variant: C64U A83C A100C C101G U129G
polymerase ribozyme fitness (log ratio): -3.82

variant: C49G C62G
polymerase ribozyme fitness (log ratio): -3.46

variant: G39A G48A A100C G120A
polymerase ribozyme fitness (log ratio): -1.06

variant: C11G C28A
polymerase ribozyme fitness (log ratio): -2.78

variant: C114U C124A
polymerase ribozyme fitness (log ratio): -1.04

variant: G44U U125A U131A
polymerase ribozyme fitness (log ratio): -2.47

variant: A100U U133G
polymerase ribozyme fitness (log ratio): -0.612

variant: A24G A41G C88U U92A U112A U131C
polymerase ribozyme fitness (log ratio): -3.58

variant: C34U G122A
polymerase ribozyme fitness (log ratio): -4.6

All values here come from the RNAGym collection of RNA variant scans (doi:10.1073/pnas.2313332121).
